Tested on: NCI/ADR-RES ovarian
Experiment: NCI tumour cell line growth inhibition, 48 h
reported-endpoint: TGI

Query block: Give recorded TGI. Cc1nc(C)c(C(=O)NNC(=O)Cc2ccccc2)cc1C(=O)NNC(=O)Cc1ccccc1
Result block: > 100 µM

Query block: Provide only the value of recorded TGI for Cc1cc2c(cc1Cl)SC1=CC(=O)N(c3ccccc3)C1=NS2(=O)=O
Result block: > 100 µM

Query block: # return recorded TGI for input COCO[C@@H]1C[C@H]2C(O)Nc3ccccc3C(=O)N2C1 (stereo not given in full)
Result block: > 100 µM

Query block: Retrieve TGI measured for Cn1nccc1Nc1nccc(-c2cc3c(s2)C(C)(C)N(CCN2CCOCC2)C3=O)n1 and print it.
Result block: > 100 µM

Query block: Give the reported value of TGI for this record: O=c1cc(-c2ccccc2)[nH]c2cc(F)c(F)cc12
Result block: > 19.6 µM

###

System: HL-60(TB) leukemia
Assay: NCI tumour cell line growth inhibition, 48 h
Task for the reader: assign each of the following compounds its reported TGI.
Express your answer in µM, writing the number without its unit.

Query block: Tell me measured TGI for O=C(O)CN1CCNCCN(CP(=O)(O)O)CC1 please.
Result block: 8.41

Query block: Return TGI for the following compound: COc1cc2nc(-c3cnc(N(C)C)nc3)nc(NC3CCN(Cc4ccccc4)CC3)c2cc1OC
Result block: 3.75

Query block: Give recorded TGI. COc1c(Cl)c2c(c(OC)c1OC)-c1ccc(OC)c(=O)c(Cl)c1C(NC(C)=O)CC2 (configuration not stated)
Result block: 2.77

###

System: PC-3 prostate
Assay: NCI tumour cell line growth inhibition, 48 h
Rule: TGI under 7 µM gives not satisfied, otherwise satisfied.

Query block: Entry CC1=NN(c2nc(N)nc(CCl)n2)CC1 : is its TGI no less than 7 µM?
Result block: satisfied

Query block: Threshold query (TGI >= 7 µM) on c1ccc(Cn2cc3c(c2-c2ccccc2)CCc2cnoc2-3)cc1
Result block: satisfied

Query block: Quick check: does CCC(=O)Nc1ccc(N=Cc2cccc(Oc3ccccc3)c2)cc1 have TGI greater than or equal to 7 µM?
Result block: satisfied

Query block: Say whether CC(=O)N1N=C2/C(=C/c3ccccc3)CC(C)CC2C1c1ccccc1 (stereo unspecified) shows TGI of 7 µM or more.
Result block: satisfied

Query block: I'd appreciate it if you could say whether C=CCCCC1CCCNC1=O (stereo unspecified) has TGI at least equal to 7 µM.
Result block: satisfied

Query block: Threshold query (TGI >= 7 µM) on COc1cc(/C=C2\C[C@H]3[C@@H]4CC=C5C[C@@H](O)CC[C@]5(C)[C@H]4CC[C@]3(C)[C@H]2O)cc(OC)c1OC
Result block: satisfied

Query block: Does Cc1ccc(CC(=O)Nc2ccc(NC(=O)/C=C/NC(=O)/C=C/c3ccc(-c4ccccc4)cc3)cc2C(=O)c2ccccc2)cc1 have a reported TGI of at least 7 µM?
Result block: not satisfied

Query block: Hi team, for COCO[C@@H]1C[C@H]2C(O)Nc3ccccc3C(=O)N2C1 (stereo partly specified) , is the recorded TGI at or above 7 µM?
Result block: satisfied

Query block: Form field: TGI at least 7 µM? Entry: COc1ccc2nc(-c3cc(-c4cc(OC)c(OC)c(OC)c4)n[nH]3)[nH]c2c1
Result block: not satisfied

Query block: Exam item: decide whether the reported TGI for C/C=C(\C)C(=O)N[C@H]1CC[C@]2(C)C3CC[C@@]4(C)C(CC[C@@H]4C(C)N(C)C)C3CCC2[C@H]1OC(C)=O (stereo partly specified) is at least 7 µM.
Result block: not satisfied

Query block: State whether the measured TGI reaches 7 µM, counting equality as reaching it, for CC1=C(C(=O)Nc2ccc(F)c(Cl)c2)C(c2ccccc2Cl)NC(=S)N1 (stereo unspecified)
Result block: satisfied
